system: Saccharomyces cerevisiae; experiment: protein stability index of tFT-peptide fusion (C-terminal peptide) (PSI (0-1 scale)); higher = more stable (slower turnover); settings: genetic background: das1 deletion; temperature: 30 C
Recorded protein stability index values for a group of sequences are listed next.
Enter a number only.

// solved cases for protein stability index follow
>>> df
                             sequence_code  value
0     PFGNGFKMNFGL [JEM1 C-terminal 12 aa]  0.736
1     FIAQAEAEAETD [GRS1 C-terminal 12 aa]  0.688
2  PNILLAFSYTAW [YNL170W C-terminal 12 aa]  0.532
3    QLQDLLSSENNK [AIM11 C-terminal 12 aa]  0.717
4     RTAYILMYQKRN [UBP3 C-terminal 12 aa]  0.782
5     SALILMYKGFGL [UBP6 C-terminal 12 aa]  0.664
6     PFYRTSAESIDF [SLM5 C-terminal 12 aa]  0.719
7     EMVKKHALNGRI [NRS1 C-terminal 12 aa]  0.712
8  PNFGFLILNSEP [YAL064W C-terminal 12 aa]  0.732
9     APDNGPTVEEVD [SSA4 C-terminal 12 aa]   0.69

Query string: Give reported protein stability index value for KWLWRELEESSL [OCA5 C-terminal 12 aa]
Result string: 0.745

---

system: Saccharomyces cerevisiae; experiment: protein stability index of tFT-peptide fusion in deletion strain of DAS1 (PSI (0-1 scale)); higher = more stable (slower turnover)
metric name: protein stability index
Number only, no unit.

>>> df
   sequence_code  value
0  VRGAVGGWRLVGN   0.67
1   VRGAVGGIRLVG  0.682
2   ARWRVVLWRGAS  0.621
3   RLIQPLPVDFLN  0.624
4   PDKRGHLIKLLN  0.593
5   FSMRWTARYWVN  0.513
6   CSMRWTFRYWVN  0.573
7   PSYAASFWRVVG  0.715

Query string: Answer with the recorded protein stability index of `ARWRVGAWRGAS` only.
Result string: 0.688

Query string: Report protein stability index, nothing else, for this sequence: `LTVYLSCVACIN`
Result string: 0.0375

---

// protein stability index lookup, one value per entry
system: Saccharomyces cerevisiae; assay: protein stability index of tFT-peptide fusion (C-terminal peptide) (PSI (0-1 scale)); higher = more stable (slower turnover); conditions: genetic background: wild type; temperature: 37 C
Output: the number by itself.

Known results for sequences:
   sequence_code  value
0   HFLLAFMLCFGQ  0.476
1   CVFAYSPVALRC  0.532
2   FLVIILFFLYMR  0.185

Shift focus to the following entry.
Query string: Specify protein stability index for `SYALGNVVGGSL` and stop.
Result string: 0.721

---

tested on: Saccharomyces cerevisiae; test: protein stability index of tFT-peptide fusion (C-terminal peptide) (PSI (0-1 scale)); higher = more stable (slower turnover); settings: genetic background: wild type; temperature: 30 C
Some sequences, each annotated with its measured protein stability index.
The answer should be a number; do not append a unit.

Here are 5 sequences together with their reported answers.
In [3]: df
Out[3]:
   sequence_code  value
0   SPRVKEVSREIR  0.689
1   ALGGPPLSPSPH   0.73
2   KKKKRVKIQKKN  0.404
3   LSVLNTQFGFGS  0.675
4   CLLAPSSLASPI   0.66

Query string: Please give measured protein stability index of the following entry: `ALLRSLSSLPLV`
Result string: 0.602

Query string: Return value of protein stability index for input `SGLGRETHGSYS` , no commentary.
Result string: 0.66

Query string: Please report protein stability index for the following sequence: `LPALPFPIPTFA`
Result string: 0.243

Query string: Please indicate protein stability index recorded for `SPPPARLLPPPS`
Result string: 0.723

Query string: Return value of protein stability index for input `CFFFPCFSFRFL` , no commentary.
Result string: 0.342

Query string: Using known records, supply protein stability index for `LLSSPPSPGFSL`
Result string: 0.748

Query string: Entry `PSPPLPPPAPLL` needs its protein stability index filled in; supply it.
Result string: 0.718

Query string: Respond only with protein stability index recorded for `AKTQGLLMVTLQ`
Result string: 0.712
